Taken from patent US20240425482A1.

- STUDY SYSTEM: DDR1 (Homo sapiens (Human), UniProt Q08345)
- Sequence (Q08345 19-913): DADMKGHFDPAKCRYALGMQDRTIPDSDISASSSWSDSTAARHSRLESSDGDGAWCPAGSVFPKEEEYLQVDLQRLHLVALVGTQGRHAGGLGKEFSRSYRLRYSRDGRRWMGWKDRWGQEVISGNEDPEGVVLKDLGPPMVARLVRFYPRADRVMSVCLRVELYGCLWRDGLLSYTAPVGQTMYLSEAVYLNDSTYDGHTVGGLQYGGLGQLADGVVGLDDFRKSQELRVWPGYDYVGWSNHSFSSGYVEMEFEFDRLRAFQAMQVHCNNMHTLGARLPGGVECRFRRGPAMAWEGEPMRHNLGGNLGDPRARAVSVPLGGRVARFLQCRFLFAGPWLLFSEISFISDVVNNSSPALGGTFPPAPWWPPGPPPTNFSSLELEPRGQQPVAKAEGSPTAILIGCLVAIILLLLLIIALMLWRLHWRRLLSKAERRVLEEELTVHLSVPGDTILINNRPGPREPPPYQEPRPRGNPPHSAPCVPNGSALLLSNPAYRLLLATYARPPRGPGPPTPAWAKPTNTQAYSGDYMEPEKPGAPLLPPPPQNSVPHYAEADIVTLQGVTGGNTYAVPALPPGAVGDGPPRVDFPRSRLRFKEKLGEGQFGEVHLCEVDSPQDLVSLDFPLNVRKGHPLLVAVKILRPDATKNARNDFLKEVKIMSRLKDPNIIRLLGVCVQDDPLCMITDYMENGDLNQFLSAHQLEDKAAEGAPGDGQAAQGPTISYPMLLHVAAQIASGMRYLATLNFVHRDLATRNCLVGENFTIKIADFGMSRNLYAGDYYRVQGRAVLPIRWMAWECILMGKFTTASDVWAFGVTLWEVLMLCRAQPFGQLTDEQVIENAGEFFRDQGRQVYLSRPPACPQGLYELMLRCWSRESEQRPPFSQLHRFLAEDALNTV
- ASSAY DETAILS: DDR1 LanthaScreen Europium Kinase Binding assay
- RECORDED CONDITIONS: binding; 5 nM DDR1, 20 nM Kinase Tracer 178, 1 hour at rt; Ki from IC50 by Cheng-Prusoff; read-out: Ki DDR1
Quick list: Ki per entry.

# example entries with known answers
Cc1ccc(C(=O)Nc2cccc(C(F)(F)F)c2)cc1[C@@H]1CCN(c2ccc(Nc3cnn(C)c3)nc2)C1 = 0.01 to 0.025 µM
Cc1ccc(C(=O)Nc2cccc(C(F)(F)F)c2)cc1[C@@H]1CCN(c2cncc(C(=O)NCCN(C)C)c2)C1 = < 0.01 µM
Cc1ccc(C(=O)Nc2cccc(C(F)(F)F)c2)cc1C1CCN(c2cncc(NCCN(C)C)c2)C1 (stereo not shown) = < 0.01 µM
Cc1ccc(C(=O)Nc2cccc(C(F)(F)F)c2)cc1[C@@H]1CCN(c2ccnc3[nH]ccc23)C1 = 0.01 to 0.025 µM

Determine its reported Ki: Cc1ccc(C(=O)Nc2cccc(C(F)(F)F)c2)cc1C1CCN(c2cncc(N3CCOCC3)c2)C1 (stereo not shown) < 0.01 µM

Determine its reported Ki: Cc1ccc(C(=O)Nc2cccc(C(F)(F)F)c2)cc1[C@@H]1CCN(c2cncc(-c3cnn(C)c3)c2)C1 < 0.01 µM

Determine its reported Ki: CNC(=O)c1cc(N2CC[C@@H](c3cc(C(=O)Nc4cccc(C(F)(F)F)c4)ccc3C)C2)ccn1 < 0.01 µM

* * *

- STUDY SYSTEM: UniProtKB Q16832
- ASSAY DETAILS: DDR2 LanthaScreen Europium Kinase Binding assay
- RECORDED CONDITIONS: binding; 5 nM DDR2, 10 nM Kinase Tracer 178, 1 hour at rt; Ki from IC50 by Cheng-Prusoff; read-out: Ki DDR2
ENDPOINT: Ki

# example entries with known answers
CO[C@@H]1CCCN(c2cncc(N3CC[C@@H](c4cc(C(=O)Nc5cccc(C(F)(F)F)c5)ccc4C)C3)c2)C1 [Example 36] = 25 to 60 nM
Cc1ccc(C(=O)Nc2cccc(C(F)(F)F)c2)cc1[C@@H]1CCN(c2cncc(C(=O)N3CCOCC3)c2)C1 [Example 33] = 10 to 25 nM
COCCn1cc(Nc2cncc(N3CC[C@@H](c4cc(C(=O)Nc5cccc(C(F)(F)F)c5)ccc4C)C3)c2)cn1 [Example 46] = 10 to 25 nM
COCCNC(=O)c1cncc(N2CC[C@@H](c3cc(C(=O)Nc4cccc(C(F)(F)F)c4)ccc3C)C2)c1 [Example 35] = < 10 nM
Cc1ccc(C(=O)Nc2cccc(C(F)(F)F)c2)cc1[C@H]1CCN(c2cncc(C(N)=O)c2)C1 [Example 18] = 10 to 25 nM

Determine its reported Ki: Cc1ccc(C(=O)Nc2cccc(C(F)(F)F)c2)cc1[C@@H]1CCN(c2cncnc2)C1 [Example 20] < 10 nM

Determine its reported Ki: Cc1ccc(C(=O)Nc2cccc(C(F)(F)F)c2)cc1[C@@H]1CCN(c2cncc(-c3cnn(C)c3)c2)C1 [Example 52] < 10 nM

Determine its reported Ki: Cc1ccc(C(=O)Nc2cccc(C(F)(F)F)c2)cc1[C@@H]1CCN(c2cncc(N3CC4(COC4)C3)c2)C1 [Example 37] 10 to 25 nM

Determine its reported Ki: Cc1ccc(C(=O)Nc2ccc(CN3CCOCC3)c(C(F)(F)F)c2)cc1[C@@H]1CCN(c2cncc(C(N)=O)c2)C1 [Example 56] 10 to 25 nM

Determine its reported Ki: Cc1ccc(C(=O)Nc2cccc(C(F)(F)F)c2)cc1C1CCN(c2cncc(NCCN3CCOCC3)c2)C1 (stereo not drawn) [Example 22] 10 to 25 nM

* * *

- STUDY SYSTEM: UniProtKB Q16832
- ASSAY DETAILS: DDR2 LanthaScreen Europium Kinase Binding assay
- RECORDED CONDITIONS: binding; 5 nM DDR2, 10 nM Kinase Tracer 178, 1 hour at rt; Ki from IC50 by Cheng-Prusoff; read-out: Ki DDR2
ENDPOINT: Ki

Cc1ccc(C(=O)Nc2ccc(CN(C)C)c(C(F)(F)F)c2)cc1[C@@H]1CCN(c2cncc(C(N)=O)c2)C1 [Example 58] = 10 to 25 nM

Determine its reported Ki: Cc1ccc(C(=O)Nc2cccc(C(F)(F)F)c2)cc1[C@@H]1CCN(c2cnc3ccnn3c2)C1 [Example 43] 25 to 60 nM

Determine its reported Ki: Cc1ccc(C(=O)Nc2cccc(C(F)(F)F)c2)cc1C1CCN(c2cncc(C#N)c2)C1 (stereo not shown) [Example 4] 25 to 60 nM

Determine its reported Ki: Cc1ccc(C(=O)Nc2cccc(C(F)(F)F)c2)cc1[C@@H]1CCN(c2cncc(C(=O)N3CCC(F)(F)CC3)c2)C1 [Example 32] > 60 nM

* * *

- STUDY SYSTEM: DDR1 (Homo sapiens (Human))
- ASSAY DETAILS: DDR1 LanthaScreen Europium Kinase Binding assay
- RECORDED CONDITIONS: same binding assay; numeric values; read-out: DDR1 Ki
Quick list: Ki per entry.
Answer format: numeric, nM implied, no suffix.

Cc1ccc(C(=O)Nc2cccc(C(F)(F)F)c2)cc1C1CCN(Cc2cccnc2)C1 (centres unmarked) [Compound C2, reference compound] = 571

Continue with the compound presented below.
Determine its reported Ki: Cc1ccc(C(=O)Nc2cccc(C(F)(F)F)c2)cc1C1CN1c1cccnc1 (centres unmarked) [Compound C1, reference compound] 174

* * *

- STUDY SYSTEM: DDR2 (Homo sapiens (Human), UniProt Q16832)
- Sequence (Q16832 22-855): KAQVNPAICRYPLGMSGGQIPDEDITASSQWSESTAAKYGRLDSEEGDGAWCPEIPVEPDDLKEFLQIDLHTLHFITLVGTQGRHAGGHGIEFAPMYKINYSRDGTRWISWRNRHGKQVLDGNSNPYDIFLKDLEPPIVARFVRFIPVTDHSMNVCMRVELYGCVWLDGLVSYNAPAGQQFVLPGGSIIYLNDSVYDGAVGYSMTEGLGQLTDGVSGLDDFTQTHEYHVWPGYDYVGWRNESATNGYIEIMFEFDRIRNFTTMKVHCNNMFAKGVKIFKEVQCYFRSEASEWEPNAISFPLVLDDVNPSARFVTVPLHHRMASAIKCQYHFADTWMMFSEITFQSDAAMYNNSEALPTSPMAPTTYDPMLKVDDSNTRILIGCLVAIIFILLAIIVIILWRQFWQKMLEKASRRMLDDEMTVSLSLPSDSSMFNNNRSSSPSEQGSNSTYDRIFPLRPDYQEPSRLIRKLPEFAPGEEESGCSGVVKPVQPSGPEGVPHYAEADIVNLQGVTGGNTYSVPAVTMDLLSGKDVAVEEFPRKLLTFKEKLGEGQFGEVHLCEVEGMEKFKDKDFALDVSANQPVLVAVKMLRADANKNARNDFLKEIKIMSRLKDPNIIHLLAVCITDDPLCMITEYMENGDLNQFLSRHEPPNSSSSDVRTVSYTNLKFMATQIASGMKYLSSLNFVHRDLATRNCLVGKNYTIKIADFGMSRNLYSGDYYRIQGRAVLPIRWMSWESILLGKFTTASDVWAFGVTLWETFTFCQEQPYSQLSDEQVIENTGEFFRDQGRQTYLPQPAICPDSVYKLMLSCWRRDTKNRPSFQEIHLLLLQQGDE
- ASSAY DETAILS: DDR2 LanthaScreen Europium Kinase Binding assay
- RECORDED CONDITIONS: binding; 5 nM DDR2, 10 nM Kinase Tracer 178, 1 hour at rt; Ki from IC50 by Cheng-Prusoff; read-out: Ki DDR2
Quick list: Ki per entry.

Determine its reported Ki: Cc1ccc(C(=O)Nc2cccc(C(F)(F)F)c2)cc1C1CCN(c2cncc(C(N)=O)c2)C1 (stereo not shown) 10 to 25 nM

Determine its reported Ki: Cc1ccc(C(=O)Nc2cccc(C(F)(F)F)c2)cc1[C@@H]1CCN(c2cnc(Nc3cnn(C)c3)nc2)C1 < 10 nM

* * *

Quick list: Ki per entry.
- STUDY SYSTEM: DDR2 (Homo sapiens (Human), UniProt Q16832)
- ASSAY DETAILS: DDR2 LanthaScreen Europium Kinase Binding assay
- RECORDED CONDITIONS: binding; 5 nM DDR2, 10 nM Kinase Tracer 178, 1 hour at rt; Ki from IC50 by Cheng-Prusoff; read-out: Ki DDR2

Under DDR2 (Homo sapiens (Human), UniProt Q16832), report Ki for CC(=O)Nc1ncc(N2CC[C@@H](c3cc(C(=O)Nc4cccc(C(F)(F)F)c4)ccc3C)C2)cn1 10 to 25 nM

* * *

- STUDY SYSTEM: UniProtKB Q08345
- ASSAY DETAILS: DDR1 LanthaScreen Europium Kinase Binding assay
- RECORDED CONDITIONS: binding; 5 nM DDR1, 20 nM Kinase Tracer 178, 1 hour at rt; Ki from IC50 by Cheng-Prusoff; read-out: Ki DDR1
ENDPOINT: Ki

# example entries with known answers
CC(=O)Nc1ncc(N2CC[C@@H](c3cc(C(=O)Nc4cccc(C(F)(F)F)c4)ccc3C)C2)cn1 = < 10 nM
Cc1ccc(C(=O)Nc2cccc(C(F)(F)F)c2)cc1C1CCN(c2cncc(N3CCN(C)CC3)c2)C1 (centres unmarked) = < 10 nM
CNC(=O)c1cncc(N2CC[C@H](c3cc(C(=O)Nc4cccc(C(F)(F)F)c4)ccc3C)C2)c1 = < 10 nM
CNC(=O)c1cncc(N2CC[C@@H](c3cc(C(=O)Nc4cccc(C(F)(F)F)c4)ccc3C)C2)c1 = < 10 nM
Cc1ccc(C(=O)Nc2cccc(C(F)(F)F)c2)cc1[C@@H]1CCN(c2cncc(N3CCC4(COC4)C3)c2)C1 = 10 to 25 nM

Determine its reported Ki: Cc1ccc(C(=O)Nc2cccc(C(F)(F)F)c2)cc1[C@@H]1CCN(c2cncc(N3CC4(COC4)C3)c2)C1 < 10 nM

Determine its reported Ki: Cc1ccc(C(=O)Nc2cccc(C(F)(F)F)c2)cc1[C@H]1CCN(c2cncc(C(N)=O)c2)C1 < 10 nM

Determine its reported Ki: Cc1ccc(C(=O)Nc2cccc(C(F)(F)F)c2)cc1C1CCN(c2cncc(OCCN3CCOCC3)c2)C1 (centres unmarked) < 10 nM

Determine its reported Ki: Cc1ccc(C(=O)Nc2cccc(C(F)(F)F)c2)cc1[C@H]1CCN(c2cccnc2)C1 10 to 25 nM

Determine its reported Ki: Cc1ccc(C(=O)Nc2cccc(C(F)(F)F)c2)cc1[C@@H]1CCN(c2cncc(C(=O)N3CCOCC3)c2)C1 < 10 nM

Determine its reported Ki: COCCOc1cncc(N2CC[C@@H](c3cc(C(=O)Nc4cccc(C(F)(F)F)c4)ccc3C)C2)c1 < 10 nM

Determine its reported Ki: Cc1ccc(C(=O)Nc2cccc(C(F)(F)F)c2)cc1C1CCN(c2cncc(OCCN(C)C)c2)C1 (centres unmarked) < 10 nM

Determine its reported Ki: Cc1ccc(C(=O)Nc2cc(CN3CCCC3)cc(C(F)(F)F)c2)cc1[C@@H]1CCN(c2cncc(C(N)=O)c2)C1 < 10 nM

Determine its reported Ki: Cc1ccc(C(=O)Nc2cccc(C(F)(F)F)c2)cc1C1CCN(c2cncc(CN3CCOCC3)c2)C1 (centres unmarked) < 10 nM

Determine its reported Ki: Cc1ccc(C(=O)Nc2cccc(C(F)(F)F)c2)cc1C1CCN(c2cncc(C#N)c2)C1 (centres unmarked) 10 to 25 nM

Determine its reported Ki: Cc1ccc(C(=O)Nc2cccc(C(F)(F)F)c2)cc1[C@@H]1CCN(c2ccc(N)nc2)C1 < 10 nM

Determine its reported Ki: Cc1ccc(C(=O)Nc2cccc(C(F)(F)F)c2)cc1[C@@H]1CCN(c2cccnc2)C1 < 10 nM

Determine its reported Ki: COc1cncc(N2CCC(c3cc(C(=O)Nc4cccc(C(F)(F)F)c4)ccc3C)C2)c1 (centres unmarked) < 10 nM
